FYI, the data here is from patent US20150259419A1.

Catalogue of binders with associated Fold over rodent (Forte affinity)
# TARGET OF ASSAY: T1, recombinant hMCAM-His (human, UniProt P43121 24-559)
# T1 construct: not shown: His tag
# T1 chain: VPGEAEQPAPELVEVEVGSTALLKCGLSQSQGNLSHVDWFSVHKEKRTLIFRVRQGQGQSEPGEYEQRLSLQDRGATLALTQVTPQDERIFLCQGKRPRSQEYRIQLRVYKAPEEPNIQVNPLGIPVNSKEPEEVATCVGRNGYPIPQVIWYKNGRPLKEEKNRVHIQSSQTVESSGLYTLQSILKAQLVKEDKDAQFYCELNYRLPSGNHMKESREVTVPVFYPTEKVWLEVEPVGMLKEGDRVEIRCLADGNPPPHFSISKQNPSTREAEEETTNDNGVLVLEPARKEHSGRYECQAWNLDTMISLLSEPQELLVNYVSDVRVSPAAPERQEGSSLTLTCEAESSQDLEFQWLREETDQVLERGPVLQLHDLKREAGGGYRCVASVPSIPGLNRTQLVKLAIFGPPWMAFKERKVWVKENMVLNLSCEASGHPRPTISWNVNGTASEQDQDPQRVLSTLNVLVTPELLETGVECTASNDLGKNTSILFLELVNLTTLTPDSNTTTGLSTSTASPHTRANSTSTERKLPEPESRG
# PROTOCOL: ForteBio Octet Red, antibody on anti-human Fc sensors, hMCAMHis analyte, 1:1 fit; relative to rodent 2120
# Method: The affinities were measured using the ForteBio Octet Red. Anti-human Fc sensors were used to capture the humanized antibodies, and several concentrations of hMCAMHis analyte were used to determine the affinity using a 1:1 fitting model.
The reply should be a number in fold, with the unit left off.

INSERT INTO measurements (binder, result_value) VALUES
  ('h2120_VH1 + h2120_VL2 (antibody, human IgG1, V domains shown, also called Standard VH + aggressive VL) VH: QVTLKESGPVLVKPTETLTLTCTVSGFSLTSNGVSWVRQPPGKALEWIAAISSGGTTYYNSAFKSRLTISRDTSKSQVVLTMTNMDPVDTATYYCARRYGYGWYFDFWGQGTLVTVSS VL: DIQMTQSPSSLSASVGDRVTITCKASQNIYNSLAWYQQKPGKAPKVLIFNANSLQTGVPSRFSGSGSGTDFTLTISSLQPEDFATYYCQQFYSGYTFGQGTKLEIK', 10.8),
  ('h2120_VH1 + h2120_VL3 (antibody, V domains shown, Humanized V regions cloned into expression vectors containing human CK (VL) or human IgG1 (VH); expressed in 293F cells; also called Standard VH + conservative VL; VH1VL3) VH: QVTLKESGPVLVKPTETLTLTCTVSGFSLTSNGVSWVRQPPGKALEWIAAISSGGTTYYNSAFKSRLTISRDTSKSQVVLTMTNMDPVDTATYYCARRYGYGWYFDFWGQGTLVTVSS VL: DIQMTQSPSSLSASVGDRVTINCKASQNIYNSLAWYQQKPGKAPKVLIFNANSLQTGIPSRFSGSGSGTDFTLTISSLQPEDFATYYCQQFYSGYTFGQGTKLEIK', 5.9);

Consider the additional binder presented here.
stdin: Item h2120_VH4 + h2120_VL3 (antibody, human IgG1, V domains shown, also called N-Q deamidate VH + conservative VL) VH: QVTLKESGPVLVKPTETLTLTCTVSGFSLTSQGVSWVRQPPGKALEWIAAISSGGTTYYNSAFKSRLTISRDTSKSQVVLTMTNMDPVDTATYYCARRYGYGWYFDFWGQGTLVTVSS VL: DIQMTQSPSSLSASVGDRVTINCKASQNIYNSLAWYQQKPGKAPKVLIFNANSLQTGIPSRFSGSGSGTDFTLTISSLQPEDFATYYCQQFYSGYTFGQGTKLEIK has what recorded Fold over rodent (Forte affinity)?
stdout: 17.4
